Sourced from patent US10544143B2

A collection of compounds and their measured IC50
- system-tested: human TLR7 (Homo sapiens (Human))
- Sequence (Q9NYK1 27-1049): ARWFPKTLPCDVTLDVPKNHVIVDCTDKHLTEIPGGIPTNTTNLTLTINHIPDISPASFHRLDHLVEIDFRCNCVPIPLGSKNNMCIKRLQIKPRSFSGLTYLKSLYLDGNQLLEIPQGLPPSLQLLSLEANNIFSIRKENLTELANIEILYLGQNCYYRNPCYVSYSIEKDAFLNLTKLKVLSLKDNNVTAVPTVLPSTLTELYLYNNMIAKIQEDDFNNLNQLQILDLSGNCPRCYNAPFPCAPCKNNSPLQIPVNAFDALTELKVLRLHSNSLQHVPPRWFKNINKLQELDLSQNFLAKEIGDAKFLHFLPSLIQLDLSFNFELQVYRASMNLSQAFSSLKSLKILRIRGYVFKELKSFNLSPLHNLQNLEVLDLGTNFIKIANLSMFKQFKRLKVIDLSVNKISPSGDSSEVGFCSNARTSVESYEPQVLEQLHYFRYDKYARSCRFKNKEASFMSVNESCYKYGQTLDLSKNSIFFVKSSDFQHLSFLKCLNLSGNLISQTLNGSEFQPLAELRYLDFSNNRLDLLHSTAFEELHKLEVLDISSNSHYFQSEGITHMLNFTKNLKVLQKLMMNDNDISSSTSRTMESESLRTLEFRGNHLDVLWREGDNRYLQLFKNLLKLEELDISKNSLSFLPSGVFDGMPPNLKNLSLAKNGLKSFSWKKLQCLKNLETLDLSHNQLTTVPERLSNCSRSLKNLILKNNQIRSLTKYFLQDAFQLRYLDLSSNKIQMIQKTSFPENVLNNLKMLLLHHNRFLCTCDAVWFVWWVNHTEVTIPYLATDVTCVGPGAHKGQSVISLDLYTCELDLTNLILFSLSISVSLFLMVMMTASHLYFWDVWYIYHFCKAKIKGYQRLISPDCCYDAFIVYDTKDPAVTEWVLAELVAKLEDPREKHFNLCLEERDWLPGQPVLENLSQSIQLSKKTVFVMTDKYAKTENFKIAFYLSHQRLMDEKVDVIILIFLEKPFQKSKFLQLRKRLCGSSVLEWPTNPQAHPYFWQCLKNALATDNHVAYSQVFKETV
- protocol-text: TLR7 inhibition reporter assay (HEK-Blue SEAP)
- Type: cell-based
- measurement-context: HEK-Blue cells overexpressing human TLR7, SEAP reporter, gardiquimod 7.5 μM

{"compound": "COc1cc(-c2[nH]c3ccc(C4CC(N(C)CCS(C)(=O)=O)C4)nc3c2C(C)C)cn2ncnc12 (centres unmarked) [Example 642]", "IC50 (nM)": 14}
{"compound": "Cc1c(-c2[nH]c3ccc(C4CCC(N(CC#N)CC(=O)N(C)C)CC4)nc3c2C(C)C)cn2ncnc2c1C (centres unmarked) [Example 459]", "IC50 (nM)": 6.2}
{"compound": "COc1cc(-c2[nH]c3ccc(C4CCC(N(CC(=O)N(C)C)CC(=O)N(C)C)C4)nc3c2C(C)C)cn2ncnc12 (centres unmarked)", "IC50 (nM)": 6.5}
{"compound": "COc1cc(-c2[nH]c3cc(C)c(C(=O)NC4CCN(C(C)C)CC4)nc3c2C(C)C)cn2ncnc12", "IC50 (nM)": 4.6}
{"compound": "COc1cc(-c2[nH]c3ccc(OCC4CCN(CC(=O)N(C)C)CC4)nc3c2C(C)C)cn2ncnc12", "IC50 (nM)": 1.2}
{"compound": "Cc1cc(-c2[nH]c3ccc(C4CCNCC4)nc3c2C(C)C)cn2cnnc12", "IC50 (nM)": 1.6}
{"compound": "COc1cc(-c2[nH]c3ccc(OC4CCC(N(C)C)CC4)nc3c2C(C)C)cn2ncnc12 (centres unmarked) [Example 614]", "IC50 (nM)": 1.9}
{"compound": "Cc1c(-c2[nH]c3ccc(C4CCC(N5CCN(C)C(=O)C5)CC4)nc3c2C(C)C)cn2ncnc2c1C (centres unmarked) [Example 443]", "IC50 (nM)": 15}
{"compound": "Cc1c(-c2[nH]c3ccc(C4CCC(N(C)C(=O)CN(C)C)CC4)nc3c2C(C)C)cn2ncnc2c1C (centres unmarked) [Example 396]", "IC50 (nM)": 1.7}
{"compound": "COc1cc(-c2[nH]c3ccc(OCC4CCN(C5CCOCC5)CC4)nc3c2C(C)C)cn2ncnc12", "IC50 (nM)": 4.8}
{"compound": "CC(C)c1c(-c2cn(C)c3ncccc23)[nH]c2ccc(CCC3CN(Cc4c[nH]nn4)C3)nc12", "IC50 (nM)": 11}
